From: paper PMC12621043

- target: MELKA (Homo sapiens, UniProt Q14680)
- Construct: purchased in-house DSF kinase panel (SGC-style construct names; the trailing letter is the construct ID)
- Sequence (Q14680 1-340): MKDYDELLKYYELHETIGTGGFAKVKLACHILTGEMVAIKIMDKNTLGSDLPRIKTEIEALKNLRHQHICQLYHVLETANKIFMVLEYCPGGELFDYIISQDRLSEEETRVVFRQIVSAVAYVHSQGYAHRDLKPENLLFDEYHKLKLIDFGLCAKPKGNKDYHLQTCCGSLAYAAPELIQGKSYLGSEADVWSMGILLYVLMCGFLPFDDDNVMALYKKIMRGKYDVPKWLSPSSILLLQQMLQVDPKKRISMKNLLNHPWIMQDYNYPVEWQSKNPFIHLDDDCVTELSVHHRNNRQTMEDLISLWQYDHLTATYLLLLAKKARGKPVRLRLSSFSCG
- assay-name: DSF Tm panel
- Assay type: binding
- recorded-conditions: 10 μM compound
Note to self: values exactly at 1 °C are T. So ΔTm at 10 µM at or above 1 °C is T, below is F.

Example results:
# compound, answer-label
records = [
    ("O=C(NCc1cccc(Cl)c1)Nc1ccc2cc1OCCOCCNc1ccn3ncc-2c3n1 [compound 18]", "T"),
    ("O=C(NCc1ccccc1Cl)Nc1ccc2cc1OCCOCCNc1ccn3ncc-2c3n1 [compound 17]", "T"),
    ("COc1cccc(CNC(=O)Nc2ccc3cc2OCCOCCNc2ccn4ncc-3c4n2)c1 [compound 30]", "T"),
    ("O=C(NCc1ccccc1C(F)(F)F)Nc1ccc2cc1OCCOCCNc1ccn3ncc-2c3n1 [compound 27]", "F"),
]

Is the recorded value of ΔTm at 10 µM equal to or greater than 1 °C for this compound? Cc1cc(Cl)ccc1CNC(=O)Nc1ccc2cc1OCCOCCNc1ccn3ncc-2c3n1 [compound 23]
T

Is the recorded value of ΔTm at 10 µM equal to or greater than 1 °C for this compound? O=C(NCc1ccc(Cl)cc1F)Nc1ccc2cc1OCCOCCNc1ccn3ncc-2c3n1 [compound 21]
T

----------
- target: CHEK2A (Homo sapiens)
- Construct: purchased in-house DSF kinase panel (SGC-style construct names; the trailing letter is the construct ID)
- Sequence (O96017 210-531): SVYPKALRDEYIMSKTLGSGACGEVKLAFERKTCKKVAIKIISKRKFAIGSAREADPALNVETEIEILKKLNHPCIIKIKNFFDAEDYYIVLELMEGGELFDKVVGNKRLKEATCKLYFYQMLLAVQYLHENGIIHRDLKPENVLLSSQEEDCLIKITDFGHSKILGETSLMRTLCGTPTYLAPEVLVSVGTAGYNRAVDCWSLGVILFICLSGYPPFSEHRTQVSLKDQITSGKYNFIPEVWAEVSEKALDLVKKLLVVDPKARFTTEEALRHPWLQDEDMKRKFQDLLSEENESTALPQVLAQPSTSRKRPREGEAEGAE
- assay-name: DSF Tm panel
- Format: binding
- recorded-conditions: 10 μM compound
# if measured ΔTm at 10 µM < 6 °C: Y  # else: N

# compound, answer-label
data = [
    ("COc1ccc(CNC(=O)Nc2ccc3cc2OCCOCCNc2ccn4ncc-3c4n2)cc1F [compound 32]", "N"),
    ("O=C(NCc1ccc(Cl)cc1Cl)Nc1ccc2cc1OCCOCCNc1ccn3ncc-2c3n1 [compound 20]", "Y"),
    ("O=C(NCc1ccccc1Cl)Nc1ccc2cc1OCCOCCNc1ccn3ncc-2c3n1 [compound 17]", "Y"),
]

Now look at this entry.
Identify whether the compound O=C(NCc1ccc(Cl)cc1F)Nc1ccc2cc1OCCOCCNc1ccn3ncc-2c3n1 [compound 21] records ΔTm at 10 µM below 6 °C.
Y

----------
Consider the following compounds and their measured ΔTm at 10 µM readings.
- target: CAMK2DA (Homo sapiens, UniProt Q13557)
- Construct: purchased in-house DSF kinase panel (SGC-style construct names; the trailing letter is the construct ID)
- Sequence (Q13557 11-309): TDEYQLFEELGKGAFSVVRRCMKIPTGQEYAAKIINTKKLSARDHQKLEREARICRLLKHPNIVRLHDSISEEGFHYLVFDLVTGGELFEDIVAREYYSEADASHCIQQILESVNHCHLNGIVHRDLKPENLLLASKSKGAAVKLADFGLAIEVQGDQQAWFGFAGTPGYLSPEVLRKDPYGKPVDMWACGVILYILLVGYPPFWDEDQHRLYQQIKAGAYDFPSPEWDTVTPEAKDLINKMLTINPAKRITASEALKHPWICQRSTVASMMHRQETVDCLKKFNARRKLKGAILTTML
- assay-name: DSF Tm panel
- Format: binding
- recorded-conditions: 10 μM compound
API: value field is a number in °C; no unit string.

# chem-smiles, experimental-readout, units-symbol, value-reported
rows = [
    ("COc1cccc(CNC(=O)Nc2ccc3cc2OCCOCCNc2ccn4ncc-3c4n2)c1", "ΔTm at 10 µM", "°C", 2.3),
]

Quick one: ΔTm at 10 µM for O=C(NCc1ccc(Cl)cc1F)Nc1ccc2cc1OCCOCCNc1ccn3ncc-2c3n1 ?
0.8

Quick one: ΔTm at 10 µM for O=C(NCc1ccc(Cl)cc1)Nc1ccc2cc1OCCOCCNc1ccn3ncc-2c3n1 ?
-0.1

Quick one: ΔTm at 10 µM for Cc1ccc(F)cc1CNC(=O)Nc1ccc2cc1OCCOCCNc1ccn3ncc-2c3n1 ?
2.4
